Exercise: for every item that follows, state its recorded Avg % Insert.
- Tested on: TTR
- Measurement description: TTR editing in HEK293_Cas9 cells transfected with dgRNAs (Table 4)
- Type: cell-based, human
- Protocol conditions: HEK293_Cas9 cells (constitutively express Spy Cas9) transfected with dgRNAs

Record excerpt, results attached:
{"Monomer sequence": "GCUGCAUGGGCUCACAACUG (tested as dual guide RNA, chemistry not given here) [CR003361]", "Measured result": "8.66%"}
{"Monomer sequence": "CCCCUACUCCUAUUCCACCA (tested as dual guide RNA, chemistry not given here) [CR003385]", "Measured result": "7.36%"}
{"Monomer sequence": "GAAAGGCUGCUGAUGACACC (tested as dual guide RNA, chemistry not given here) [CR003352]", "Measured result": "4.91%"}

Could I get Avg % Insert for every one of these entries?
1. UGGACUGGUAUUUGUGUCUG (tested as dual guide RNA, chemistry not given here) [CR003340]
2. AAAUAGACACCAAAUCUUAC (tested as dual guide RNA, chemistry not given here) [CR003366]
3. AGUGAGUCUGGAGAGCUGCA (tested as dual guide RNA, chemistry not given here) [CR003359]
4. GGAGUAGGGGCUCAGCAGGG (tested as dual guide RNA, chemistry not given here) [CR003382]

[out]
1. 27.88%
2. 10.10%
3. 18.35%
4. 4.46%
